Test system: NCI-H522 lung
Assay: NCI tumour cell line growth inhibition, 48 h
We begin with a simple list: items and their reported TGI.

Some solved cases for reference:
Molecule	TGI
CC(C)(C)OC(=O)N1Cc2cc(O)ccc2C[C@H]1C(=O)O	> 100 µM
COc1ccc2oc(=Nc3ccc(F)cc3)c(C(N)=O)cc2c1	> 100 µM
COc1cc([C@@H]2c3cc4c(cc3[C@@H](N=Cc3ccc(C(=O)O[C@@H](C(=O)O[C@H]5C[C@@]6(O)[C@@H](OC(=O)c7ccccc7)[C@@H]7[C@]8(OC(C)=O)CO[C@@H]8C[C@H](O)[C@@]7(C)C(=O)[C@H](OC(C)=O)C(=C5C)C6(C)C)[C@@H](NC(=O)c5ccccc5)c5ccccc5)cc3)[C@H]3COC(=O)[C@H]23)OCO4)cc(OC)c1O	> 50 µM
C/C(=N\NC(=O)c1cccnc1)c1cccc(/C(C)=N/NC(=O)c2cccnc2)n1.CC(=O)[O-].CC(=O)[O-].[Zn+2]	> 21.7 µM

Here COc1ccc2c(c1)CC1(O)COc3cc(OC)ccc3C1O2 (stereo not given) was tested on NCI-H522 lung, and its TGI came to > 100 µM

###

Tested on: PC-3 prostate
Test: NCI tumour cell line growth inhibition, 48 h
We begin with a simple list: items and their reported TGI.

Some solved cases for reference:
Molecule	TGI
CCOC(=O)C1=NN(c2ccc(Cl)cc2)C2=CC(C)=NN(C)C(=S)N21	> 100 µM
CC1(C)N=C(N)N=C(N)N1c1ccc(CCc2ccc(Cl)cc2S(=O)(=O)F)c(Cl)c1	> 100 µM
c1cncc(-c2nc3ccccc3s2)c1	> 100 µM

Reported TGI for COc1cc(O)c2c(=O)c(OC)c(-c3ccc4c(c3)OCO4)oc2c1OC was > 50 µM

Reported TGI for CCCCCCCCCCCCCCCCCCOc1ccc(/C=C/C2=[N+](CCCl)CCO2)cc1 was > 100 µM

Reported TGI for CC1(C)O[C@H]2OC(CO)C(OS(C)(=O)=O)[C@H]2O1 (stereo partly specified) was > 100 µM

Reported TGI for CC1(C)CCC[C@]2(C)c3cc(O)ccc3CC[C@@H]12 was 30.2 µM

Reported TGI for Cc1cc(Nc2ccc(F)cc2)nc(N2CCN(c3ccnc4cc(Cl)ccc34)CC2)n1 was > 100 µM

Reported TGI for CC(C)(C)OC(=O)N1Cc2cc(O)ccc2C[C@H]1C(=O)O was > 100 µM

Reported TGI for CC(O)c1cc2c(s1)C(=O)c1scc(C(C)O)c1C2=O (stereo unspecified) was 3.48 µM

Reported TGI for NC(=S)N/N=C/c1ccc(O)cn1 was > 1500 µM

Reported TGI for COC(=O)c1c(O)ccc2c1c1c(n2Cc2ccccc2OC)C(=O)c2ccccc2C1 was 78.8 µM

Reported TGI for NNC(=O)CCC(NS(=O)(=O)c1ccc(Cl)cc1)C(=O)NN (stereo unspecified) was > 100 µM

###

System: ACHN renal
Assay: NCI tumour cell line growth inhibition, 48 h; in the data active = GI50 below about 0.43 µM; inactive = the rest
Reply using exactly one outcome from active, inactive

Prompt: Test call for this molecule, please: COc1ccc2c(c1)CCc1[nH]nc(-c3cc(OC)c(OC)c(OC)c3)c1-2
Response: active

Prompt: Test call for this molecule, please: COc1ccc(SC2c3ccc(C)cc3Oc3nc(N)c(C#N)c(N)c32)cc1 (stereo not given)
Response: inactive

Prompt: Test call for this molecule, please: Cn1cc(-c2nc(-c3c[nH]c4ccncc34)cs2)c2cc(F)ccc21
Response: inactive

Prompt: Test call for this molecule, please: CC1(C)N=C(N)N=C(N)N1c1ccc(CCc2ccc(Cl)cc2S(=O)(=O)F)c(Cl)c1
Response: inactive

Prompt: Test call for this molecule, please: O=C(O)CC(NC(=O)CP(=O)(O)O)C(=O)O.[NH-]C1CCCCC1[NH-].[Pt+2] (stereo not given)
Response: inactive

Values from PubChem BioAssay (NCI)
